# Assay target: CCR5 (Homo sapiens (Human))
# Sequence (P51681 whole entry): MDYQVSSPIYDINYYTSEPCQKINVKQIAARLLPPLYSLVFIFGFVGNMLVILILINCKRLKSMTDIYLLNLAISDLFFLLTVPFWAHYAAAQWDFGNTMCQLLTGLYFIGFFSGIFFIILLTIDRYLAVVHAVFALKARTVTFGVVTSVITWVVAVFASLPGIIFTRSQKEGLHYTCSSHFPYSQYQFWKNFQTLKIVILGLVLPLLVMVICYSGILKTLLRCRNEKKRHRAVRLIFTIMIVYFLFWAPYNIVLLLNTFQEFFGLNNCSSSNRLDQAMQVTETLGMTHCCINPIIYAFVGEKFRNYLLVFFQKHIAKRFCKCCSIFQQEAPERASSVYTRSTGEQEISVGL
# Method notes: Calcium flux inhibition experiment
# Format: cell-based
# Reported conditions: HEK293/CCR5-Gα16 cell line, calcium flux; read-out: CCR5 IC50
Kindly apply the following: 1.0 if IC50 is less than 9 nM, 0.0 in every other case.

Molecule	Label value
CC(=O)N1CCc2c(nc(C)n2C2CC3CCC(C2)N3CC[C@H](NC(=O)C2CCC(F)(F)CC2)c2ccsc2)C1 (stereo partly drawn)	0.0
COc1ccc([C@H](CCN2C3CCC2CC(n2c(C)nnc2C(C)C)C3)NC(=O)C2CCN(S(C)(=O)=O)CC2)s1 (stereo partly drawn)	1.0
Cc1nnc(C(C)C)n1C1CC2CCC(C1)N2CC[C@H](NC(=O)C1CCCCC1)c1ccc(F)s1 (stereo partly drawn)	0.0
CCCC(=O)N1CCc2c(nc(C)n2C2CC3CCC(C2)N3CC[C@H](NC(C)=O)c2ccc(F)s2)C1 (stereo partly drawn)	0.0
Cc1nnc(C(C)C)n1C1CC2CCC(C1)N2CC[C@H](NC(=O)C1CCCC1)c1cccnc1 (stereo partly drawn)	0.0
CCc1ccc([C@H](CCN2C3CCC2CC(n2c(C)nnc2C(C)C)C3)NC(=O)C2CCCCC2)s1 (stereo partly drawn)	1.0
